# credit: paper PMC4775997

# test_system: PfPKG (Plasmodium falciparum)
# Construct: plasmids (pTrcHisC) encoding full-length PfPKG and PfPKG T618Q with N-terminal His tags; His tag (N); made in house; host or cells: E. coli Rosetta2(DE3)
# assay_explanation: Microfluidic fluorescent shift assay of cGMP-dependent protein kinase activity
# Assay type: biochemical
# experimental_conditions: Table 2; ATP at Km 20 μM; read-out: Enzyme inhibition IC50, PKG
pIC50: −log10 of the molar value.

molecule	pIC50
Fc1cccnc1Nc1ncc(-c2cnc3ccc(NC4CCC(N5CCCC5)CC4)nn23)cn1 (stereo not shown)	8.70

----------
# System: P. falciparum 3D7
# assay_explanation: SYBR green I growth assay, wild-type parasites
# Assay type: cell-based, Plasmodium falciparum
# experimental_conditions: Plasmodium falciparum, 3D7, 96 h; Table S1; single experiment with duplicate samples, or mean of triplicate experiments (SD); read-out: EC50 96 hours
pEC50: −log10 of the molar value.
readout: pEC50

smiles_text	readout	value_measured
CC(C)CCNc1ccc(-c2cnc3ccc(NC4CCN(C)CC4)nn23)cn1	pEC50	6.51
